Substrate: O=C(Nc1ccccc1)C(=O)c1ccccc1
Experiment: initial velocity by HPLC of product, nonlinear Michaelis-Menten fit
Assay type: biochemical, Bacillus subtilis
Conditions: NAD(P)H cofactor, potassium phosphate 100 mM pH 7.0, 30 °C
Labelling field: enter criterion met if recorded kcat is less than 4 s⁻¹. Enter criterion not met if it equals or exceeds that cut-off.

{"columns": ["protein", "discrete.label"],
 "data": [
  ["iolS (Bacillus subtilis subsp. subtilis str. 168; F126A/N21A) (protein, pET28a, His-tagged, expressed in E. coli BL21(DE3), Ni-NTA purified) MKKAKLGKSDLQVFPIGLGTAAVGGHNLYPNLNEETGKELVREAIRNGVTMLDTAYIYGIGRSEELIGEVLREFNREDVVIATKAAHRKQGNDFVFDNSPDFLKKSVDESLKRLNTDYIDLFYIHAPDEHTPKDEAVNALNEMKKAGKIRSIGVSNFSLEQLKEANKDGLVDVLQGEYNLLNREAEKTFFPYTKEHNISFIPYFPLVSGLLAGKYTEDTTFPEGDLRNEQEHFKGERFKENIRKVNKLAPIAEKHNVDIPHIVLAWYLARPEIDILIPGAKRADQLIDNIKTADVTLSQEDISFIDKLFA", "criterion not met"],
  ["iolS (Bacillus subtilis subsp. subtilis str. 168; F126L/I57F) (protein, pET28a, His-tagged, expressed in E. coli BL21(DE3), Ni-NTA purified) MKKAKLGKSDLQVFPIGLGTNAVGGHNLYPNLNEETGKELVREAIRNGVTMLDTAYFYGIGRSEELIGEVLREFNREDVVIATKAAHRKQGNDFVFDNSPDFLKKSVDESLKRLNTDYIDLFYIHLPDEHTPKDEAVNALNEMKKAGKIRSIGVSNFSLEQLKEANKDGLVDVLQGEYNLLNREAEKTFFPYTKEHNISFIPYFPLVSGLLAGKYTEDTTFPEGDLRNEQEHFKGERFKENIRKVNKLAPIAEKHNVDIPHIVLAWYLARPEIDILIPGAKRADQLIDNIKTADVTLSQEDISFIDKLFA", "criterion not met"]
]}

We next turn to a different protein, shown below.
Q: Dear reviewer, please state whether iolS (Bacillus subtilis subsp. subtilis str. 168) (protein, pET28a, His-tagged, expressed in E. coli BL21(DE3), Ni-NTA purified) MKKAKLGKSDLQVFPIGLGTNAVGGHNLYPNLNEETGKELVREAIRNGVTMLDTAYIYGIGRSEELIGEVLREFNREDVVIATKAAHRKQGNDFVFDNSPDFLKKSVDESLKRLNTDYIDLFYIHFPDEHTPKDEAVNALNEMKKAGKIRSIGVSNFSLEQLKEANKDGLVDVLQGEYNLLNREAEKTFFPYTKEHNISFIPYFPLVSGLLAGKYTEDTTFPEGDLRNEQEHFKGERFKENIRKVNKLAPIAEKHNVDIPHIVLAWYLARPEIDILIPGAKRADQLIDNIKTADVTLSQEDISFIDKLFA has kcat strictly beneath 4 s⁻¹.
Ans: criterion met
